The reported numbers originate from PubChem BioAssay (NCI).

The reader will find reported TGI values listed item by item below.
Tested on: IGROV1 ovarian
Assay: NCI tumour cell line growth inhibition, 48 h
Expressed in µM, but write only the number.

molecule	TGI [µM]
O=[N+]([O-])c1cc([N+](=O)[O-])c(NN=C(c2ccc(O)cc2)c2ccc(O)cc2)cc1Cl	1.57

q: Test system IGROV1 ovarian; read-out TGI; what value for Clc1ccc(Cc2nc3cc(Cl)c(Cl)cc3n2CC2CCCN3CCCCC23)cc1Cl (stereo not given) ?
a: 15.4

###

System: DLD-1 colon
Assay: NCI tumour cell line growth inhibition, 48 h
quantity-measured: TGI

compound	TGI
CC1(C)C(=NNC(=S)NN)C(C)(C)C1=NNC(=S)NN	> 100 µM
CC(C)(C)OC(=O)C1=C(O)C(C(=O)OC(C)(C)C)C23CCCCC12C(C(=O)OC(C)(C)C)C(O)=C3C(=O)OC(C)(C)C (stereo not drawn)	> 100 µM
COC(=O)/C(C#N)=C1\CCC(OC)N1 (stereo not drawn)	> 100 µM
CCOC(=O)c1c(NNc2ccccc2)nc2ccccc2c1-c1ccccc1	> 100 µM
COc1cccc2c1C(=O)c1c(O)c3c(c(O)c1C2=O)C[C@@](O)(C(=O)CO)C[C@@H]3OC1CC(N(C)C)C(O)C(C)O1 (stereo partly drawn)	0.176 µM

q: TGI lookup needed for CCCCCCCCCCCCC(=O)CCCCC(=O)O , thanks.
a: 38.1 µM

q: Consider next the compound CCc1cccc(C(C)CC)c1NC(=O)CC1C(=O)Nc2ccccc2S1(=O)=O (stereo not drawn) in the same way.
a: 33.2 µM

q: Consider next the compound C1C[OH+]CCNCC[OH+]CC[OH+]CCN1.O.[Cl-].[Pt+4] in the same way.
a: > 100 µM

q: Consider next the compound CC[C@H]1CC(=O)c2c(cc3c(c2O)C(=O)c2ccccc2C3=O)[C@@]1(C#N)C(=O)OC(C)(C)C in the same way.
a: 7.08 µM

q: Consider next the compound Cc1cc2c(cc1O)[nH]c1cc3c(cc12)C=CC(C)(C)O3 in the same way.
a: > 25 µM

q: Consider next the compound Cc1ccc(N=Nc2c(C)nn(-c3ccccc3)c2C)c(Br)c1 in the same way.
a: > 100 µM

###

System: UACC-257 melanoma
Assay: NCI tumour cell line growth inhibition, 48 h
Where a SMILES comes first, the peptide text is derived from it. [ ]: non-standard residue; d: D form. ξ: configuration not given here. ξThz(5,5-Me2) = CC1(C)SCNC1C(=O)O
quantity-measured: TGI

These recorded examples may help you get a feel for the data.
molecule	TGI
Nc1ccc(Sc2nnc(N)s2)cc1	> 100 µM
COC1=CC(=O)c2c(c(-c3csc(C)n3)cn2C)C1=O	32.6 µM
CC(C#N)NCc1ccc(C(C)NC(C)C#N)cc1 (centres undefined)	> 100 µM
C=CCOC1=C(OC(C)=O)C(=O)OC1C1COC(C)(C)O1 (centres undefined)	> 100 µM
NCCCNc1nc2ccccc2c2c(=O)c3cccc(F)c3sc12	3.81 µM
CSCC[C@H](NC(=O)[C@H](CC(C)C)NC(=O)[C@H](Cc1c[nH]cn1)NC(=O)CNC(=O)C1N(C(=O)[C@@H](C)NC(=O)[C@H](Cc2c[nH]c3ccccc23)NC(=O)[C@H](CCC(N)=O)NC(=O)[C@@H](N)CC(N)=O)CSC1(C)C)C(N)=O (some centres undefined) (H-NQW[dA][ξThz(5,5-Me2)]GHLM-NH2)	> 25 µM
O=C(Nc1ccn(C2CCC(CO)O2)c(=O)n1)c1ccccc1 (centres undefined)	> 100 µM
CN(C)c1nc2nonc2nc1Nc1ccccc1	> 100 µM

q: TGI lookup needed for Cn1cc(-c2csc(-c3c[nH]c4ccc(F)cc34)n2)c2cccnc21 , thanks.
a: > 100 µM

###

System: HCC-2998 colon
Test: NCI tumour cell line growth inhibition, 48 h
quantity-measured: TGI

compound	TGI
CN(C)c1ccc(C2C(Cl)C(=O)N2NC(=O)c2c(Cl)c(Cl)c(Cl)c(Cl)c2-c2nc3ccccc3[nH]2)cc1 (stereo unspecified)	30.2 µM
Cn1c([N+](=O)[O-])cnc1/C=C1\Oc2ccc(Br)cc2C1=O	3.62 µM
COC(=O)C1=CC(=O)OC1(OO)c1ccc(Br)cc1 (stereo unspecified)	> 100 µM
O=C1c2cccc3cc4ccccc4c(c23)C(=O)N1CCNCCN1C(=O)c2cccc3cc4ccccc4c(c23)C1=O	2.23 µM
COC(=O)C1=C(C(=O)OC)SC2(S1)C1=C(CCC1)SC(C(=O)OC)=C2C(=O)OC	33 µM

q: TGI lookup needed for COc1cc(C(=O)/C=C/c2c(-c3cccs3)nc3sccn23)cc(OC)c1OC , thanks.
a: 2 µM

###

The reader will find reported TGI values listed item by item below.
Test system: KM12 colon
Test: NCI tumour cell line growth inhibition, 48 h

molecule	experimental-target	TGI
COc1cc(/C=C/c2cc(/C=C/c3ccc(O)c(OC)c3)n(C(N)=O)n2)ccc1O	KM12 colon	1.86 µM
O=C1c2ccccc2C(=O)N1[C@@H](Cc1ccccc1)C(=O)n1cccc1CO	KM12 colon	> 100 µM
CCOC(=O)C1=C(C#N)S(=O)(=O)c2c(oc(C)c2C)N1	KM12 colon	> 100 µM
CC(=O)O[C@H]1CC[C@@]2(C)C(=CC[C@@H]3C2CC[C@]2(C)Nc4c(cnn4-c4ccccc4)CC32)C1 (stereo not given in full)	KM12 colon	69.8 µM

Here is another molecule to look at.
q: TGI lookup needed for COc1ccc2nccc(/C=C/c3ccc(N(C)C)cc3)c2c1 , thanks.
a: > 10 µM

###

Test system: SNB-75 CNS
Experiment: NCI tumour cell line growth inhibition, 48 h
quantity-measured: TGI (µM)
Expressed in µM, but write only the number.

These recorded examples may help you get a feel for the data.
molecule	quantity-measured	uom	assay-result
CC(=O)O[C@H]1CC[C@@]2(C)C(=CC[C@@H]3C2CC[C@]2(C)Nc4c(cnn4-c4ccccc4)CC32)C1 (stereo partly specified)	TGI	µM	30.8
CN(C)CCNC(=O)c1cccc2nc3c(ccc4ccccc43)nc12	TGI	µM	16.5
O=C1c2c(O)ccc(O)c2C(=O)c2c(NCCNC(=O)C(O)C(O)C(O)C(O)CO)ccc(NCCNC(=O)C(O)C(O)C(O)C(O)CO)c21 (stereo unspecified)	TGI	µM	1.23
COc1cc(/C=C/c2cc(/C=C/c3ccc(O)c(OC)c3)n(C(N)=O)n2)ccc1O	TGI	µM	1.26
COC1=C(C)C(=O)N2[C@@H]1[C@H](c1ccccc1)OC21C=CC(=O)C=C1	TGI	µM	50

Here is another molecule to look at.
q: TGI lookup needed for FC(F)(F)c1ccc2c(c1)nc(-c1ccccc1)n2CC1CCCN2CCCCC12 (stereo unspecified) , thanks.
a: 50.8

###

The reader will find reported TGI values listed item by item below.
System: UACC-62 melanoma
Experiment: NCI tumour cell line growth inhibition, 48 h

q: TGI lookup needed for COc1ccc(P2(=S)OCCOP(=S)(c3ccc(OC)cc3)S2)cc1 (stereo unspecified) , thanks.
a: > 100 µM

q: Consider next the compound OCN(CO)c1ccc2c(c1)Cc1cc(F)ccc1-2 in the same way.
a: 38.1 µM

###

The reader will find reported GI50 values listed item by item below.
Tested on: T-47D breast
Assay: NCI tumour cell line growth inhibition, 48 h

CCN(Cc1cc(F)cc(F)c1)c1ccc(CO)c(Cl)c1 118 nM
CN(c1ccc(Cl)c(Cl)c1)c1cnc2cc(N)cc(N)c2n1 2450 nM

Here is another compound to look at.
q: GI50 lookup needed for COc1cc(C(=O)/C=C/c2c(-c3cccs3)nc3sccn23)cc(OC)c1OC , thanks.
a: 789 nM

###

System: TK-10 renal
Experiment: NCI tumour cell line growth inhibition, 48 h
The reader will find reported TGI values listed item by item below.

compound	experimental-target	assay-result
C#CCCOC(=O)CC1=C(C)/C(=C/c2ccc(S(C)=O)cc2)c2ccc(F)cc21 (stereo not given)	TK-10 renal	83.3 µM
COc1ccc(Cc2nccc3cc(OC)c(OC)cc23)cc1	TK-10 renal	> 100 µM
C=CCOC1=C(OC(C)=O)C(=O)OC1C1COC(C)(C)O1 (stereo not given)	TK-10 renal	> 100 µM
Cc1cccc(C)c1NC(=O)CCC(=O)NNc1nnc(C)n1N	TK-10 renal	> 100 µM

Here is another compound to look at.
q: TGI lookup needed for CCOC(=O)NC(=O)c1cn(CCN2CCN(C(=O)CCCCCCCCCCNc3ncnc4c3ncn4C3OC(CO)C(O)C3O)CC2)c(=O)[nH]c1=O (stereo not given) , thanks.
a: > 100 µM

###

Tested on: RXF 393 renal
Experiment: NCI tumour cell line growth inhibition, 48 h
quantity-measured: log10 TGI (log10 of the value in µM)
Log10 applied to TGI; unit prior to transform: µM.

compound	assay-result
COc1cccc(-c2nnc3c(-c4ccccc4)nc4ccccc4n23)c1	1.98
COC1=C(C)C(=O)N2[C@@H]1[C@H](c1ccccc1)OC21C=CC(=O)C=C1	0.80
COc1cc(/C=C/[N+](=O)[O-])c([N+](=O)[O-])cc1OC	0.43

q: log10 TGI lookup needed for COc1cc2c(Oc3ccc4[nH]c(C)cc4c3F)ncnc2cc1OCCCN1CCCC1 , thanks.
a: 0.52

q: Consider next the compound CC1=C(C)C(=O)C(C2=C(C3=CC(=O)C(C)=C(C)C3=O)C(=O)C(C)=C(C)C2=O)=CC1=O in the same way.
a: 0.71

q: Consider next the compound CN(C)CCCNc1nc2ccccc2c2c(=O)c3cc(F)ccc3sc12 in the same way.
a: 0.46

q: Consider next the compound N#Cc1cc(-c2ccnc(Nc3ccc(NC(=O)CCl)cc3)n2)ccc1N1CCCC1 in the same way.
a: 0.43

q: Consider next the compound Nc1nc(SCc2ccccc2)nc2[nH]ncc12 in the same way.
a: 1.06

q: Consider next the compound CC(C)(C)[Si](C)(C)OC1(CCc2ccccc2OS(=O)(=O)C(F)(F)F)CCCC=C1COCc1ccccc1 (stereo unspecified) in the same way.
a: 1.96
